Entries and their MIC
# System: Saccharomyces cerevisiae
# TEST: Fungicidal activity against Saccharomyces cerevisiae AY-10-R11 mutant after 24 hrs by microdilution method
# Assay type: functional
# MEASUREMENT CONTEXT: AY-10-R11, 24 h
Starred links: 1 amine or outer side, 2 acyl side, 3 side chain; linkers in the order of their positions; H or OH if unused. Positions of bridges follow the written chain, without caps; N, C: chain ends. Non-standard residues stand in square brackets, D forms with d. Residues, ends and D or L forms follow the SMILES beside them. *: point of attachment. Orn(4R-OH,5R-OH) = O=C([C@H](C[C@@H](O)[C@@H](O)N[*:3])N[*:1])[*:2]; hTyr(3S-OH,4S-OH) = N[C@H](C(=O)O)[C@H](O)[C@@H](O)c1ccc(O)cc1; Pro(3S-OH,4S-Me) = C[C@H]1CN[C@H](C(=O)O)[C@H]1O; Palmitoyl = CCCCCCCCCCCCCCCC(=O)*; Hyp = O=C(O)[C@@H]1C[C@@H](O)CN1
Unit µg/mL implied. Number only.

Take a look at these entries with their results.
CCc1c(C)c(C#N)c2nc3ccccc3n2c1NCCN(CC)CC    8
Nc1nc(=O)[nH]cc1F [FLUCYTOSINE]    4
CCCCCCCCCCCCCCCC(=O)N[C@H]1C[C@@H](O)[C@@H](O)NC(=O)[C@@H]2[C@@H](O)[C@@H](C)CN2C(=O)[C@H]([C@@H](C)O)NC(=O)[C@H]([C@H](O)[C@@H](O)c2ccc(O)cc2)NC(=O)[C@@H]2C[C@@H](O)CN2C(=O)[C@H]([C@@H](C)O)NC1=O [ACULEACIN A] (Palmitoyl-[Orn(4R-OH,5R-OH)]T[Hyp][hTyr(3S-OH,4S-OH)]T[Pro(3S-OH,4S-Me)]; lactam 1-C)    0.25

Which measured MIC value corresponds to C[C@@H]1[C@H](O)[C@@H](C)/C=C/C=C/C=C/C=C/C=C/C=C/C=C/[C@H](O[C@@H]2O[C@H](C)[C@@H](O)[C@H](N)[C@@H]2O)C[C@@H]2O[C@](O)(C[C@@H](O)C[C@@H](O)[C@H](O)CC[C@@H](O)C[C@@H](O)CC(=O)O[C@H]1C)C[C@H](O)[C@H]2C(=O)O [AMPHOTERICIN B] ? 0.125

Where do the numbers come from? From ChEMBL document CHEMBL1629587.
